readoutType: melting point

1) Nc1nc2c(s1)CCN(CC=Cc1ccc(F)cc1)CC2 | 142 to 146 °C
2) CC1(C)C(=O)N(c2ccc(C#N)c(C(F)(F)F)c2)C(=O)N1CCCCCN1C(=O)N(c2ccc(C#N)c(C(F)(F)F)c2)C(=O)C1(C)C | 167 to 169 °C
3) COc1cc(C2CCNCC2)ccc1Nc1ncc2ccc(-c3cccc(S(=O)(=O)NC(C)(C)C)c3)n2n1 | 201 to 202 °C
4) CC(C)(C)C(CC#N)(SN=O)C(C)(C)C | 92 to 93 °C
5) CCCCNS(=O)(=O)CC(O)C(O)C(CC1CCCCC1)NC(=O)c1cccnc1 (stereo not drawn) | 61 to 64 °C
6) NCc1cccc(CNC(N)=O)c1 | 127 to 129 °C
7) CC(=NO)c1cc2c(s1)CCCN(CCCCN1CCN(c3ncccn3)CC1)C2=O | 144 to 146 °C
8) COc1cccc2c1C[C@H]1C[C@@H](CCN3CCN(C(c4ccccc4)c4ccccc4)CC3)CN(C)[C@@H]1C2 | 140 to 148 °C
9) COc1ccc2c(N3CCc4c(Br)ccc(C)c43)ncnc2c1 | 134 to 135 °C
10) COC(=O)c1cnc(N)nc1OC | 221 °C
11) O=C(O)C#Cc1ccccn1 | 130 °C
12) O=C1OCCC12Sc1ccc(Cl)cc1C2=O (stereo not drawn) | 143 to 144 °C
13) CCOC(=O)C1=C(/C=C/N(C)C)C(CC)(C(=O)N(CC)CC)OC1=O (stereo not drawn) | 105 °C
14) CCCSc1sc(C(=O)OCC)c2c1C(=O)C(NC(=O)CC)CC2 (stereo not drawn) | 191 to 192 °C
15) CCOC(=O)c1cc2sc(C)c(N(C)C(=O)OCc3ccccc3)c2[nH]1 | 122 °C
16) CNC(=O)C(Cc1ccc(OC)cc1)NC(=O)C(CC(C)C)C(S)CC(=O)NCC(=O)OC(C)(C)C (stereo not drawn) | 223 to 226 °C
17) CCOC(=O)c1c[nH]nc1NCc1ccccc1 | 99 to 100 °C
18) O=C(O)CN(C(=O)OCc1ccccc1)c1ccc(O)cc1 | 196 to 198 °C
19) CCCCCCC1(CCn2ccnc2)SCCS1 | 110 to 116 °C
20) CN1CCC(=C2c3ccccc3-c3cocc3-c3ccccc32)CC1 | 147 to 148 °C
21) CCCCC(=O)c1[nH]c(=O)[nH]c1C | 222 to 224 °C
22) CCCCNS(=O)(=O)c1cc(C(=O)CCl)ccc1Cl | 89 °C
23) CCOc1nn(Cc2ccnc(OCc3cn4c(-c5ccccc5)cccc4n3)c2)cc1CCC(=O)O | 177 to 178 °C
24) CCOC(=O)C1=C(CO)NC(C)=C(C(=O)OCCOCc2ccccc2)C1c1cccc([N+](=O)[O-])c1 (stereo not drawn) | 112 to 114 °C
25) O=C(O)COc1cccc2c1CCc1sc(S(=O)(=O)CCCC(c3ccccc3)c3ccccc3)nc1-2 | 180 to 181 °C
26) O=c1ccc(Br)cn1CC1(O)CCN(Cc2ccccc2F)CC1 | 184 to 186 °C
27) O=C(CCc1ccccc1)N1C(=O)OC[C@@H]1Cc1ccccc1 | 92 to 95 °C
28) CC(C)(C)OC(=O)N1CCCN(c2nc3ccccc3[nH]2)CC1 | 225 to 226 °C
29) CCC(C#N)(C(=O)N1CCOCC1)c1ccccc1 (stereo not drawn) | 88 to 90 °C
30) NS(=O)(=O)c1ccc2c(c1)S(=O)(=O)NC(C1CCCCC1)N2 (stereo not drawn) | 252 to 254 °C
31) CCNC(=O)c1c(C)cccc1[Si](C)(C)C | 64 to 66 °C
32) CCOC(=O)C1CCc2c(c3ccccc3n2C(=O)c2ccc(C)cc2)C1 (stereo not drawn) | 70 to 72 °C
33) CC1(C)CC(=O)Nc2ccc(-c3cccc(Cl)c3)cc21 | 211 to 215 °C
34) Cc1cc(C(=O)C(=O)O)c(O)cc1Oc1ccccc1 | 85 to 87 °C
35) OCC(CO)OCn1c(Cl)nc2c(Cl)c(Cl)c(Cl)c(Cl)c21 | 155 °C
36) O=C(O)CCC1(CCC(=O)O)CCC(=O)N1 | 162 to 164 °C
37) N#Cc1cnn(-c2ccccn2)c1N | 197 to 200 °C
38) Clc1ccc(-c2ncn(CC3CC3)c2-c2ccncc2)cc1Cl | 146 °C
39) CC(=C1SCSCS1)c1ccc(OCCCN2CCOCC2)cc1 | 95 to 98 °C
40) CC(C)=CCc1c(O)ccc(C(=O)C=Cc2ccc(O)cc2O)c1O | 150 to 151 °C
41) Cc1cc(C(O)(C(F)(F)F)C(F)(F)F)cc(C)c1NCC(N)=O | 205 to 207 °C
42) CC(C)(C)N(C(=O)C(O)(C(=O)O)c1ccccc1)C(C)(C)C (stereo not drawn) | 99 to 100 °C
43) CCCCCCCCC#CCC#CCC#CCCCC(=O)O | 69 to 70 °C

----------
readoutType: melting point

1) CCCc1c(O)ccc2ccc(C(=O)OCC)cc12 | 114 to 115 °C
2) O=C(O)c1cc2c(c(C(=O)O)c1)NCCC2 | 298 to 299 °C
3) Cc1cccc(-c2[nH]c(C(C)C)nc2-c2cccc(-c3cccc(F)c3)c2)n1 | 140 to 142 °C
4) COc1cccc(C(=O)Nc2cnn(Cc3c(C)noc3C)c2)c1 | 127 to 129 °C
5) O=C(Cl)c1cc(F)c(Cl)c([N+](=O)[O-])c1Cl | 35 to 37 °C
6) COC(=O)c1cccc2c1ccn2S(C)(=O)=O | 102 to 104 °C
7) COc1ccc(CNC2SC(=O)NC2=O)cc1 (configuration not stated) | 140 to 142 °C
8) COc1cc2c(Nc3ccc(Cl)cc3F)ncnc2cc1OCCN1CCS(=O)(=O)CC1 | 246 to 249 °C
9) CN(C)C1=NCc2ccc(Cl)cc2O1 | 118 to 120 °C
10) OCCC(O)OCn1cc(I)c2c(Cl)ncnc21 (configuration not stated) | 155 to 156 °C
11) O=[N+]([O-])c1ccc(Sc2cc(Cl)cc(Cl)c2)c(S(=O)(=O)NC2CN3CCC2CC3)c1 (configuration not stated) | 256 °C
12) CC(C)(C)c1ccc(Cn2c(=S)n(Cc3ccc(NS(C)(=O)=O)cc3)c3ccccc32)cc1 | 176 to 178 °C
13) CCOC(=O)CC(=O)Nc1ncc(Br)s1 | 165 to 166 °C
14) COC(C)c1cc2c(=O)n(NS(C)(=O)=O)c(=O)[nH]c2cc1C(F)(F)F (configuration not stated) | 233 to 236 °C
15) CCCc1cn2c(=O)c(C(=O)OCC)cnc2c2cc(OC)ccc12 | 187 to 188 °C
16) CCOC(=O)Cn1cnc2c(N3CCOCC3)nc(NC(=O)C3CCCCC3)nc21 | 142 to 147 °C
17) Nc1cccc2c1CCCCC2 | 107 to 111 °C
18) CN1CCC(n2cc(C3=C(c4cn(C)c5ccccc45)C(=O)NC3=O)c3ccccc32)CC1 | 316 to 318 °C
19) COc1cc2c(cc1C(F)(F)F)N(C(=O)Nc1cccc(-c3cnccc3C)c1)CC2 | 178 to 180 °C
20) CCOCc1nc2c(N)nc3ccccc3c2n1CCOCc1ccccc1 | 144 to 146 °C
21) CCCCCCCCCn1ccc(C#N)cc1=O | 46 to 48 °C
22) CCOC(=O)Cc1c(C(=O)O)c(C)c(C(=O)c2ccc(C)cc2)n1C | 200 to 202 °C

----------
readoutType: melting point

1. Nc1ccc(-n2nnn(CCCC3CCCCC3)c2=O)cc1 | 64 to 69 °C
2. CC1CC(=O)NN=C1c1ccc(N2CCN(C(=O)NCCCc3c[nH]cn3)CC2)c([N+](=O)[O-])c1 (stereo not given) | 182 °C
3. CN1CCC(c2n[nH]c3ccccc23)CC1 | 168 to 170 °C
4. O=C(Oc1cc(OC(=O)c2ccc(O)c(O)c2)c2ccccc2c1)c1ccc(O)c(O)c1 | 79 to 81 °C
5. CCCCCCC(=O)NCC(=O)O | 98 to 100 °C
6. CCOc1ccc(-c2nc(CCC(=O)O)cs2)cc1OCC | 111 to 114 °C
7. Cc1nn(C2CCCC2C)c(N)c1C(N)=O (stereo not given) | 124 to 126 °C
8. Cc1ccc(-c2c(CNC(=O)OC(C)(C)C)n(CC(C)C)c(=O)c3ccc(C(=O)O)cc23)cc1 | 230 to 231 °C
9. CCCO[C@@H](C)C(=O)Oc1ccc(-c2ccc(C(=O)O)cc2)cc1 | 155 °C
10. CN1Cc2c(-c3noc(CNCc4ccccc4)n3)ncn2-c2ccccc2C1=O | 88 to 92 °C

Origin of the recorded values: a melting point compilation (Tetko et al.; mined from patent text by program, amines drawn as free bases though some values may be those of a salt)
